Recorded values, source ChEMBL document CHEMBL4007424.

- measurement-target: Sigma non-opioid intracellular receptor 1 (Cavia porcellus) (UniProt Q60492)
- Sequence (Q60492 whole entry): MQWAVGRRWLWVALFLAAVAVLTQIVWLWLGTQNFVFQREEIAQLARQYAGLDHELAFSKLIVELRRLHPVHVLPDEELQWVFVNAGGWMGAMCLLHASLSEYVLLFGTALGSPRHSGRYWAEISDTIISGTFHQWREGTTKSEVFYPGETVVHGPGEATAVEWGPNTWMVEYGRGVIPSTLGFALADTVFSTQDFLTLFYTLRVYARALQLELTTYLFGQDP
- protocol-summary: Displacement of [3H]-(+)-pentazocine from sigma1-type […] receptor in guinea pig cortex membranes at 1 uM after 120 mins by solid scintillation counting
- Type: cell membranes
value-kind: inhibition (%)
Output spec: scalar in %, unitless text.

Solved cases below.
COC(=O)N1CCN(C(=O)Cc2ccc(F)c(Cl)c2)[C@@H]2[C@@H](N3CC[C@H](F)C3)CCC[C@@H]21    0
COC(=O)N1CCN(C(=O)Cc2ccc(F)c(Cl)c2)[C@@H]2[C@@H](N3CC[C@H](O)C3)CCC[C@@H]21    0

Given the entry `COC(=O)N1CCN(C(=O)Cc2ccc(C(F)(F)F)c(Cl)c2)[C@@H]2[C@@H](N3CC[C@H](O)C3)CCC[C@@H]21` , report its measured inhibition.
30

----------
- Organism: Sus scrofa
- protocol-summary: Displacement of [3H]-(+)-MK 801 from PCP binding site of NMDA receptor in pig brain cortex membranes at 10 uM after 120 mins by solid scintillation counting
- Assay type: cell membranes
// label = Fulfilled if inhibition is not less than 1%, otherwise Not fulfilled

Would you please look over these solved cases?
COC(=O)N1CCN(C(=O)Cc2cccc(Cl)c2)[C@@H]2[C@@H](N3CC[C@H](O)C3)CCC[C@@H]21    Fulfilled
O=C(Cc1ccc(Cl)cc1)N1CCN(S(=O)(=O)Cc2ccon2)[C@H]2CCC[C@H](N3CC[C@H](O)C3)[C@H]21    Not fulfilled
COC(=O)N1CCN(C(=O)Cc2ccc(Cl)c(Cl)c2)[C@@H]2[C@@H](N3CCCC3)CCC[C@@H]21    Fulfilled
O=C(Cc1ccc(Cl)c(Cl)c1)N1CCN[C@H]2CCC[C@H](N3CCCC3)[C@H]21    Not fulfilled
CS(=O)(=O)N1CCN(C(=O)Cc2ccc(Cl)c(Cl)c2)[C@@H]2[C@@H](N3CCCC3)CCC[C@@H]21    Not fulfilled

Confirm if inhibition reported for the compound `COC(=O)N1CCN(C(=O)Cc2ccc(Cl)c(Cl)c2)[C@@H]2[C@@H](N(C)C)CCC[C@@H]21` is 1% or above.
Not fulfilled

Tell me whether inhibition is at least 1% here: `CNC(=O)C(=O)N1CCN(C(=O)Cc2ccc(Cl)c(Cl)c2)[C@@H]2[C@@H](N3CCCC3)CCC[C@@H]21`
Fulfilled

Kindly determine if inhibition recorded for `O=C(Cc1ccc(Cl)c(F)c1)N1CCN(S(=O)(=O)Cc2ccon2)[C@H]2CCC[C@H](N3CC[C@H](O)C3)[C@H]21` is above or exactly 1%.
Fulfilled

Threshold query (inhibition >= 1%) on `COC(=O)N1CCN(C(=O)Cc2ccc(C(F)(F)F)c(Cl)c2)[C@@H]2[C@@H](N3CC[C@H](O)C3)CCC[C@@H]21`
Not fulfilled

----------
The entries below come with measured inhibition values attached.
- measurement-target: Sigma non-opioid intracellular receptor 1 (Cavia porcellus)
- protocol-summary: Displacement of [3H]-(+)-pentazocine from sigma1-type […] receptor in guinea pig cortex membranes at 1 uM after 120 mins by solid scintillation counting
- Assay type: cell membranes
Entry rule: numbers only, all in %.

Missing value: inhibition, Sigma non-opioid intracellular receptor 1 (Cavia porcellus), entry `COC(=O)N1CCN(C(=O)Cc2cccc(Cl)c2)[C@@H]2[C@@H](N3CC[C@H](O)C3)CCC[C@@H]21` . Fill in?
0

What reported inhibition corresponds to `CCOC(=O)CN1CCN(C(=O)Cc2ccc(Cl)c(Cl)c2)[C@@H]2[C@@H](N3CCCC3)CCC[C@@H]21` on Sigma non-opioid intracellular receptor 1 (Cavia porcellus)?
0

What inhibition appears in the records for this compound with Sigma non-opioid intracellular receptor 1 (Cavia porcellus)? `COC(=O)N1CCN(C(=O)Cc2ccc(F)c(F)c2)[C@@H]2[C@@H](N3CC[C@H](O)C3)CCC[C@@H]21`
34
